- Measured target: GDP-bound KRAS wild-type protein (Homo sapiens, UniProt P01116)
- Sequence (P01116 whole entry): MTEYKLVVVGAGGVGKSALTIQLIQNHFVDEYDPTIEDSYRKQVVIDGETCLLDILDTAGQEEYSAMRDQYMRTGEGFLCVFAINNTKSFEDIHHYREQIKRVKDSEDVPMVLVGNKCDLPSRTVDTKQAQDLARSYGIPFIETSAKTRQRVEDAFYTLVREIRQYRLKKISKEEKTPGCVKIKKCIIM
- Experimental protocol: Binding to KRAS by surface plasmon resonance (SPR), Single Cycle Kinetics
- Conditions: SPR, Single Cycle Kinetics, GDP-bound KRAS wild-type protein; read-out: KRAS KD
Where a SMILES comes first, the peptide text is derived from it. Bridges are numbered along the chain shown (N, C = ends). [ ]: non-standard residue; d: D form. The star is where a group is joined. hPhe(3-Cl-4-CF3) = N[C@@H](CCc1ccc(C(F)(F)F)c(Cl)c1)C(=O)O; NPrPhe(4-CF3) = CCCN[C@@H](Cc1ccc(C(F)(F)F)cc1)C(=O)O; NMeGly(cPent) = CN[C@H](C(=O)O)C1CCCC1; Ac4c(3,3-Me2) = CC1(C)CC(N)(C(=O)O)C1; NMeD = CN[C@@H](CC(=O)O)C(=O)O; NMeL = CN[C@@H](CC(C)C)C(=O)O; Morpholide = C1CN(*)CCO1; Sar = CNCC(=O)O; Propyl = CCC*
Measurement type: pKd
The value called pKd is obtained by taking minus log10 of the concentration in mol/L.

Prompt: Input CCCO[C@H](C)[C@@H]1NC(=O)[C@H](CC(C)C)N(C)C(=O)C[C@@H](C(=O)N2CCOCC2)N(C)C(=O)[C@H](C2CCCC2)N(C)C(=O)C2(CC(C)(C)C2)NC(=O)[C@@H]2CCCN2C(=O)[C@H](CCc2ccc(C(F)(F)F)c(Cl)c2)NC(=O)CN(C)C(=O)[C@H](Cc2ccc(C(F)(F)F)cc2)N(CCC)C(=O)CN(C)C(=O)CN(C)C1=O [PP1965] ([NMeL]T(Propyl)[Sar][Sar][NPrPhe(4-CF3)][Sar][hPhe(3-Cl-4-CF3)]P[Ac4c(3,3-Me2)][NMeGly(cPent)][NMeD]-Morpholide; lactam N-11) , output reported pKd.
Response: 9.52

Prompt: Entry `CCO[C@@H]1C[C@H]2C(=O)NC3(CC(C)(C)C3)C(=O)N(C)[C@@H](C(CC)CC)C(=O)N(C)[C@H](C(=O)N(C)C)CC(=O)N(C)[C@@H](CC)C(=O)N[C@@H]([C@@H](C)CC)C(=O)N(C)CC(=O)N(C)[C@H]3C/C=C\CCN(C3=O)[C@@H](Cc3ccc(C)cc3)C(=O)N(C)CC(=O)N[C@@H](CCc3cc(F)c(C(F)(F)F)c(F)c3)C(=O)N2C1` needs its pKd filled in; supply it.
Response: 9.48

Prompt: Specify pKd for `CC[C@H](C)[C@@H]1NC(=O)[C@@H]2CCCCCc3ccc(cc3)C[C@@H](C(=O)N(C)CC(=O)N[C@@H](CCc3ccc(C(F)(F)F)c(OC)c3)C(=O)N3C[C@H](OC4CCC4)C[C@H]3C(=O)NC3(CC(C)(C)C3)C(=O)N(C)[C@@H](C3CCCC3)C(=O)N(C)[C@H](C(=O)N(C)C)CC(=O)N2C)N2CC/C=C\C[C@@H](C2=O)N(C)C(=O)CN(C)C1=O` and stop.
Response: 10.60

Prompt: Provide pKd value for the following compound: `CCCOC[C@H]1C(=O)N[C@@H]([C@@H](C)CC)C(=O)N(C)CC(=O)N(C)[C@H]2C/C=C\CCN(C2=O)[C@@H](Cc2ccc(C(F)(F)F)cc2)C(=O)N(C)CC(=O)N[C@@H](CCc2ccc(C(F)(F)F)c(OC)c2)C(=O)N2C[C@H](OCC)C[C@H]2C(=O)NC2(CC(C)(C)C2)C(=O)N(C)[C@@H](C2CCCC2)C(=O)N(C)[C@H](C(=O)N(C)CC)CC(=O)N1C`
Response: 10.00
